# system-name: HLA-A*31:01
# assay-text: IEDB peptide-MHC binding, purified MHC/competitive/radioactivity; filed as Kd, often an IC50 or EC50 that approximates it; bounds were set here for any values at or beyond the usual limits of such assays
# condition-parameters: source organism: Vaccinia virus WR
parameter-measured: Kd

Here are 4 sequences together with their reported answers.
RMLDTSEKY :: ≥ 66.2 µM
ESRDRKWLYY :: ≥ 70 µM
YFSKQTQTY :: ≥ 25 µM
DTQMRTPLHK :: ≥ 52.1 µM

Suppose we examine the sequence `FVSLVKKNK` ; what Kd value has been reported?
≥ 77.9 µM

Entry `YALINLVQY` please
≥ 20.5 µM

Entry `TSPGEIKPK` please
≥ 22.5 µM

* * *

# system-name: HLA-B*44:02
# assay-text: IEDB peptide-MHC binding, purified MHC/competitive/radioactivity; filed as Kd, often an IC50 or EC50 that approximates it; bounds were set here for any values at or beyond the usual limits of such assays
# condition-parameters: source organism: SARS coronavirus Tor2
pKd: −log10 of the molar value.
parameter-measured: pKd

LEVKFNAPA :: ≤ 4.67

Suppose we examine the sequence `MDGIQYGRSG` ; what pKd value has been reported?
≤ 4.30

Entry `GDYFVLTSHT` please
≤ 4.29

Entry `NDFVSDADST` please
≤ 4.49

* * *

# system-name: HLA-A*02:03
# assay-text: IEDB peptide-MHC binding, purified MHC/competitive/radioactivity; filed as Kd, often an IC50 or EC50 that approximates it; bounds were set here for any values at or beyond the usual limits of such assays
# condition-parameters: source organism: Vaccinia virus WR
parameter-measured: pKd
Field pKd (float): negative decimal logarithm of the concentration in molar.

TLVKSGLTEV :: 8.53

# returns recorded pKd (system: HLA-A*02:03) for `KASTISWMM`
6.25

Entry `IINSVSIIL` please
5.54

* * *

# system-name: HLA-B*51:01
# assay-text: IEDB peptide-MHC binding, purified MHC/competitive/radioactivity; filed as Kd, often an IC50 or EC50 that approximates it; bounds were set here for any values at or beyond the usual limits of such assays
# condition-parameters: source organism: Vaccinia virus WR
The entries below come with measured Kd values attached.

Here are 2 sequences together with their reported answers.
DPRLVAEHRF :: ≥ 69.6 µM
KPEVRIPVDL :: ≥ 69.6 µM

Read the next record carefully.
Suppose we examine the sequence `DPDHYKDYAF` ; what Kd value has been reported?
≥ 69.6 µM

* * *

# system-name: HLA-A*02:02
# assay-text: IEDB peptide-MHC binding, purified MHC/competitive/radioactivity; filed as Kd, often an IC50 or EC50 that approximates it; bounds were set here for any values at or beyond the usual limits of such assays
# condition-parameters: source organism: Vaccinia virus WR
The entries below come with measured Kd values attached.

Here are 3 sequences together with their reported answers.
FASADNHPKM :: ≥ 70 µM
NVTYNIKPV :: ≥ 22.8 µM
LANERYRSA :: ≥ 31.3 µM

Suppose we examine the sequence `ELTNKKYRCM` ; what Kd value has been reported?
≥ 70 µM

* * *

The entries below come with measured Kd values attached.
# system-name: HLA-A*68:01
# assay-text: IEDB peptide-MHC binding, purified MHC/competitive/radioactivity; filed as Kd, often an IC50 or EC50 that approximates it; bounds were set here for any values at or beyond the usual limits of such assays
# condition-parameters: source organism: SARS coronavirus Tor2
Form entry: value (nM) — number only.

Here are 6 sequences together with their reported answers.
IVQMLSDTLK :: 1180
KSAQCFKMFY :: 1450
VQIDRLITGR :: 1030
SLLSLREVK :: 1190
QLEQPYVFIK :: 17200
ALGGSIAVK :: 11200

Suppose we examine the sequence `TMLFTMLRK` ; what Kd value has been reported?
1580

Entry `ATSTGNYNYK` please
9.61

* * *

The entries below come with measured pKd values attached.
# system-name: HLA-A*24:02
# assay-text: IEDB peptide-MHC binding, purified MHC/competitive/radioactivity; filed as Kd, often an IC50 or EC50 that approximates it; bounds were set here for any values at or beyond the usual limits of such assays
# condition-parameters: source organism: SARS coronavirus Tor2
pKd: −log10 of the molar value.

FSGALDTTSY :: ≤ 4.15

Read the next record carefully.
Suppose we examine the sequence `LTDDMIAAY` ; what pKd value has been reported?
≤ 4.11

* * *

# system-name: HLA-B*40:01
# assay-text: IEDB peptide-MHC binding, purified MHC/competitive/radioactivity; filed as Kd, often an IC50 or EC50 that approximates it; bounds were set here for any values at or beyond the usual limits of such assays
# condition-parameters: source organism: SARS coronavirus Tor2
parameter-measured: Kd

NDFVSDADST :: ≥ 69.6 µM
NEKVAGFAKF :: ≥ 53.7 µM
MDGIQYGRSG :: ≥ 69.6 µM
MELPTGVHA :: ≥ 24.9 µM
SEAFLIGANY :: ≥ 10 µM

Read the next record carefully.
# returns recorded Kd (system: HLA-B*40:01) for `GDYFVLTSHT`
≥ 69.6 µM

* * *

# system-name: HLA-A*02:06
# assay-text: IEDB peptide-MHC binding, purified MHC/competitive/radioactivity; filed as Kd, often an IC50 or EC50 that approximates it; bounds were set here for any values at or beyond the usual limits of such assays
# condition-parameters: source organism: Vaccinia virus WR
parameter-measured: Kd

Here are 5 sequences together with their reported answers.
ELKDLLNVT :: ≥ 38.4 µM
LANERYRSA :: ≥ 77.1 µM
TINALVYFST :: ≥ 62.2 µM
SMTSDSKSI :: ≥ 55.8 µM
FASADNHPKM :: ≥ 69.8 µM

# returns recorded Kd (system: HLA-A*02:06) for `PTEMVDVSM`
≥ 40.2 µM

Entry `DIKYDNKLL` please
≥ 77.1 µM

Entry `PLIISTDQDT` please
≥ 47.4 µM

Entry `PTPKKMNIVT` please
≥ 69.8 µM

Entry `DLDKVYEIL` please
≥ 53.7 µM

* * *

# system-name: HLA-A*68:01
# assay-text: IEDB peptide-MHC binding, purified MHC/competitive/radioactivity; filed as Kd, often an IC50 or EC50 that approximates it; bounds were set here for any values at or beyond the usual limits of such assays
# condition-parameters: source organism: Vaccinia virus WR
The entries below come with measured Kd values attached.
Form entry: value (nM) — number only.

Here are 3 sequences together with their reported answers.
IFPANINDK :: 1200
CAMPYNILDR :: 8.75
RSLQTIASKK :: 1170

Read the next record carefully.
Suppose we examine the sequence `TSDSKSIENK` ; what Kd value has been reported?
369

* * *

# system-name: HLA-A*11:01
# assay-text: IEDB peptide-MHC binding, purified MHC/competitive/radioactivity; filed as Kd, often an IC50 or EC50 that approximates it; bounds were set here for any values at or beyond the usual limits of such assays
# condition-parameters: source organism: Vaccinia virus WR
The entries below come with measured pKd values attached.
Field pKd (float): negative decimal logarithm of the concentration in molar.

ALDEKWNEFK :: 7.01
GIGTFLHYK :: 9.23

# returns recorded pKd (system: HLA-A*11:01) for `SLELIIIHTK`
5.89

Entry `RMLDTSEKY` please
5.01

Entry `RSLQTIASK` please
8.14

Entry `LVFNSISAR` please
7.57

Entry `QTIASKKDK` please
6.12

* * *

# system-name: HLA-A*02:02
# assay-text: IEDB peptide-MHC binding, purified MHC/competitive/radioactivity; filed as Kd, often an IC50 or EC50 that approximates it; bounds were set here for any values at or beyond the usual limits of such assays
# condition-parameters: source organism: Vaccinia virus WR
pKd: −log10 of the molar value.
parameter-measured: pKd

Here are 2 sequences together with their reported answers.
PLIISTDQDT :: ≤ 4.35
DVCKKNLDL :: ≤ 4.60

Read the next record carefully.
Suppose we examine the sequence `PTPKKMNIVT` ; what pKd value has been reported?
≤ 4.18

* * *

# system-name: HLA-A*31:01
# assay-text: IEDB peptide-MHC binding, purified MHC/competitive/radioactivity; filed as Kd, often an IC50 or EC50 that approximates it; bounds were set here for any values at or beyond the usual limits of such assays
# condition-parameters: source organism: SARS coronavirus Tor2
Classes by Kd: A = under 700 nM, B = from 700 nM up to 6000 nM, C = 6000 nM and over

TMLFTMLRK :: B

Please let me know in which category the item `SLLSLREVK` belongs.
A

Entry `AFQHQNSKK` please
A

Entry `ALKYLPIDK` please
C

Entry `TLVPQEHYVR` please
B

Entry `STSAFIDTIK` please
C

* * *

# system-name: HLA-B*07:02
# assay-text: IEDB peptide-MHC binding, purified MHC/competitive/radioactivity; filed as Kd, often an IC50 or EC50 that approximates it; bounds were set here for any values at or beyond the usual limits of such assays
# condition-parameters: source organism: Vaccinia virus WR
pKd: −log10 of the molar value.
The entries below come with measured pKd values attached.

Here are 2 sequences together with their reported answers.
DPRLVAEHRF :: ≤ 4.67
DPTFQLLNMI :: ≤ 4.16

Read the next record carefully.
Suppose we examine the sequence `DPDHYKDYAF` ; what pKd value has been reported?
≤ 4.16
